- assaySystem: ALDH1A2 (Homo sapiens)
- Sequence (O94788 whole entry): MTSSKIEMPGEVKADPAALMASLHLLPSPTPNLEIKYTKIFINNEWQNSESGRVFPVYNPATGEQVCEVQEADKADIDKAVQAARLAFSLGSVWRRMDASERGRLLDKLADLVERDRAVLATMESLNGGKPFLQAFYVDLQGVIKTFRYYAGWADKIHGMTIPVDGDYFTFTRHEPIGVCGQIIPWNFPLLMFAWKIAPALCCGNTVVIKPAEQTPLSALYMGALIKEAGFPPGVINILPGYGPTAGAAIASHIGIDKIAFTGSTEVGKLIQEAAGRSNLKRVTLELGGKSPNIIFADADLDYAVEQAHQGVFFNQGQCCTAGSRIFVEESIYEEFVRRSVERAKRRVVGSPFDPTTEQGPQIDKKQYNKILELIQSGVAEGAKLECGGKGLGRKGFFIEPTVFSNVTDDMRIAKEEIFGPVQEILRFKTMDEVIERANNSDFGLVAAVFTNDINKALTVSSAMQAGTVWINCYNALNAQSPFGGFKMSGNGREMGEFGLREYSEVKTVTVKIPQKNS
- assayNotes: Cell-based enzyme assay, retinoic acid production in ALDH1A2/H1299 cells
- runParameters: cell-based
# note: exactly 0.1 µM is not below, so it is NO; use YES for EC50 strictly under it

[Q] Just wondering, is EC50 of `CON(C)C(=O)c1ccc(-c2nn(-c3ccc(C#N)cc3)cc2C(=O)Nc2cccc(F)c2)cc1` below 0.1 µM?
[A] YES

[Q] Just wondering, is EC50 of `CS(=O)(=O)c1ccc(-c2nn(-c3ccc(F)cc3)cc2C(=O)Nc2cccc(C(F)(F)F)c2)cc1` below 0.1 µM?
[A] YES

[Q] Just wondering, is EC50 of `CN(C)C(=O)c1ccc(-n2cc(C(=O)Nc3cccc(F)c3)c(-c3ccc(S(C)(=O)=O)cc3)n2)cc1` below 0.1 µM?
[A] NO

[Q] Just wondering, is EC50 of `CNC(=O)c1ccc(-n2cc(C(=O)Nc3cccc(F)c3)c(-c3ccc(S(C)(=O)=O)cc3)n2)cc1` below 0.1 µM?
[A] NO

[Q] Just wondering, is EC50 of `CS(=O)(=O)c1ccc(-c2nn(-c3ccccc3)cc2C(=O)Nc2cccc(F)c2)cc1` below 0.1 µM?
[A] YES

[Q] Just wondering, is EC50 of `CCS(=O)(=O)c1ccc(-c2nn(-c3ccccc3)cc2C(=O)Nc2cccc(F)c2)cc1` below 0.1 µM?
[A] YES

[Q] Just wondering, is EC50 of N#Cc1ccc(-n2cc(C(=O)Nc3cccc(F)c3)c(-c3ccc(NC(=O)C(Cl)Cl)cc3)n2)cc1 [Compound 310] below 0.1 µM?
[A] NO

[Q] Just wondering, is EC50 of `O=C(O)c1ccc(-n2cc(C(=O)Nc3cccc(F)c3)c(-c3ccc(O)cc3)n2)cc1` below 0.1 µM?
[A] NO

[Q] Just wondering, is EC50 of `CS(=O)(=O)c1ccc(-c2nn(-c3ccccc3)cc2C(=O)Nc2cccc(F)c2O)cc1` below 0.1 µM?
[A] YES

[Q] Just wondering, is EC50 of `CS(=O)(=O)c1ccc(-c2nn(-c3ccc(C=O)cc3)cc2C(=O)Nc2cccc(F)c2)cc1` below 0.1 µM?
[A] NO

[Q] Just wondering, is EC50 of `CS(=O)(=O)c1ccc(-c2nn(-c3cccc(C#N)c3)cc2C(=O)Nc2cccc(F)c2)cc1` below 0.1 µM?
[A] YES

[Q] Just wondering, is EC50 of `CS(=O)(=O)c1ccc(-c2nn(-c3ccc(F)cc3)cc2C(=O)Nc2cccc(F)c2)cc1` below 0.1 µM?
[A] YES

[Q] Just wondering, is EC50 of `O=Cc1cn(-c2ccccc2)nc1-c1ccc(O)cc1` below 0.1 µM?
[A] NO

[Q] Just wondering, is EC50 of `CC(=O)c1ccc(-c2nn(-c3ccc(C#N)cc3)cc2C(=O)Nc2cccc(F)c2)cc1` below 0.1 µM?
[A] NO

[Q] Just wondering, is EC50 of `CS(=O)(=O)c1ccc(-c2nn(-c3ccc(C#N)cc3)cc2C(=O)Nc2cccc(C(F)(F)F)c2)cc1` below 0.1 µM?
[A] YES
